property_measured: logP
One number for each entry.

{"columns": ["molecule", "logP"],
 "data": [
  ["Nc1nc2c(ncn2C2OC(CO)C(O)C2O)c(=O)[nH]1 (stereo not given)", -1.9],
  ["CCCCCCCCOC(=O)c1cc(=O)[nH]c(=O)[nH]1", 2.6]
]}

# batch: return logP for each of the 7 molecules below
1. CCCc1ccc(O)cc1
2. CCCN(C(C)=O)C(C)C
3. CN(Cc1ccc(Cl)cc1)N=Nc1ccc(C(=O)O)cc1
4. O=C1Nc2ccccc2CC1c1ccccc1 (stereo not given)
5. CCC(C)CC
6. CCOC(=O)OCCC(SC(=O)OCC)=C(C)N(C=O)CC1=C(C(=O)OCOC(=O)C(C)(C)C)N2C(=O)C(NC(=O)C(=NOC)c3csc(N)n3)C2SC1 (stereo not given)
7. COC1CC(OC2CCC3(C=O)C4CCC5(C)C(C6=CC(=O)OC6)CCC5(O)C4CCC3(O)C2)OC(C)C1O (stereo not given)

3.2
1.48
4.85
2.93
3.6
3.34
0.64

For every listed record, write down its logP.
1. Cc1c2ccccc2cc2ccccc12
2. CCN(CC)C(=O)c1cccc(C)c1
3. Cc1cc(C)c(O)c(C)c1

[5.07, 2.18, 2.73]

Required: logP, one value per molecule below.
1. OCc1ccccc1C(c1ccc(O)cc1)c1ccc(O)cc1
2. C#CC1(O)C(F)CC2C3CCc4cc(O)ccc4C3C(OC)CC21C (stereo not given)
3. CC1Cc2ccccc2CN1 (stereo not given)
4. Cc1cc(Cl)cc(C)c1NC1=NCCN1
5. CCn1c(=O)[nH]c(=O)c2[nH]cnc21
6. Cc1ccc(N2Cn3c(nc4ccccc4c3=O)C2C)cc1 (stereo not given)
7. CCCCCC(=O)OCC(Cc1cncn1C)C(CC)C(=O)OCc1ccccc1 (stereo not given)
8. c1ccc(CC2=NCCN2)cc1

1. 3.27
2. 2.87
3. 1.93
4. 2.5
5. -0.11
6. 2.16
7. 4.75
8. 2.65

Value sought for every listed molecule: logP.
1. CCOC(=O)C=COc1ccccc1Cl
2. CCCCC(O)C(=O)O (stereo not given)
3. CC(C)Oc1ccc(C(=O)c2ccc3n2CCC3C(=O)O)cc1 (stereo not given)
4. O=C1C2C3C=CC(C4C=CC43)C2C(=O)N1CCCCN1CCN(c2ncccn2)CC1 (stereo not given)
5. CCN(CCO)Cc1cccc(COc2ccccc2)c1
6. COc1cccc2c1C(=O)c1c(O)c3c(c(O)c1C2=O)C[C@@](O)(C(C)=O)C[C@@H]3O[C@H]1C[C@H](N)[C@H](O)[C@H](C)O1
7. ClC(Cl)=C(c1ccc(Cl)cc1)c1ccc(Cl)cc1
8. N#Cc1ccc(C[Se]CCC(=O)O)cc1

[3.55, 0.81, 3.38, 1.79, 3.04, 1.83, 6.51, 1.37]

# batch: return logP for each of the 5 molecules below
1. CCCN1C(=O)SC(=Cc2ccc([N+](=O)[O-])o2)C1=O
2. CCCCCc1cc(OCCCCN)c2c(c1)OC(C)(C)C1CC=C(C)CC21 (stereo not given)
3. CC(=O)c1ccc(S(=O)(=O)NC(=O)NC2CCCCC2)cc1
4. CCOP(N)(=O)ON=C(C#N)c1ccccc1 (stereo not given)
5. O=C(Cc1ccccc1)c1ccc2n1CCC2C(=O)O (stereo not given)

[2.4, 8.38, 2.44, 0.72, 2.52]

Look up logP for the entries below, preserving their order.
1. COc1ccc(C(=O)OCC2OC(n3cnc4c(OC)ncnc43)C2OC(=O)c2ccc(OC)cc2)cc1 (stereo not given)
2. O=C(c1c(F)cccc1F)c1ccc2n1CCC2C(=O)O (stereo not given)
3. CCCCCC(CCC)C(=O)O (stereo not given)
4. CCN1CC(C(O)C(CC2CCCCC2)NC(=O)C(Cc2cnc[nH]2)NC(=O)C(CC(=O)N(C)CCOC)Cc2ccccc2)OC1=O (stereo not given)
5. O=c1ccc2ccc3occc3c2o1
6. CCCCNC(=O)n1cc(F)c(=O)[nH]c1=O
7. CC1(C)NC(=Nc2ncc([N+](=O)[O-])s2)OC1(C)C
8. CCCCNC(=O)c1cc(Br)cc(C)c1O

[3.65, 2.47, 3.2, 2.45, 2.08, 1.44, 2.4, 4.21]

Can you give me logP for all of these, one by one?
1. CC(=O)OCC1SC(n2ccnc2[N+](=O)[O-])C(OC(C)=O)C(OC(C)=O)C1OC(C)=O (stereo not given)
2. CCOC(=O)CNC(=O)CCCCSc1ncnc2nc[nH]c12
3. c1ccc(-c2ncc3ccccc3n2)cc1
4. O=C(c1cccc(C(F)(F)F)c1)c1ccc2n1CCC2C(=O)O (stereo not given)
5. CNCCCN1c2ccccc2Sc2ccc(Cl)cc21
6. c1ccc2c(c1)ccc1cc3c(ccc4ccccc43)cc12
7. CC(C)c1cccc(S(N)(=O)=O)c1

1. 0.63
2. 0.91
3. 3.42
4. 3.69
5. 4.94
6. 6.75
7. 1.81

Look up logP for the entries below, preserving their order.
1. OC(Cn1ccnc1)(c1ccc(F)cc1)c1ccc(-c2ccccn2)cc1 (stereo not given)
2. Fc1ccc(Cl)c(N=C2NCCN2)c1

[3.58, 1.52]
